Data credit: ChEMBL document CHEMBL3885861

Exercise: for every item that follows, state its recorded RBC.
organism: Rattus norvegicus; test: Open TG-GATES - Regimen: Single; type: toxicity, organism-based, Sprague-Dawley; parameters: regimen Single, gender Male, age 6 weeks; details: in vivo, po, 0 mg/kg, 24 h, tissue Blood, route gavage, dose level Control
Number in x10_4/ul, nothing else.

Request: Quickly give me recorded RBC for C[C@H](CS)C(=O)N1CCC[C@H]1C(=O)O [CAPTOPRIL]
Result: 614.6

Request: Quickly give me recorded RBC for CCc1cc(C(N)=S)ccn1 [ETHIONAMIDE]
Result: 635.6

Request: Quickly give me recorded RBC for Cn1c(=O)c2[nH]cnc2n(C)c1=O.O [THEOPHYLLINE]
Result: 657

Request: Quickly give me recorded RBC for COc1ccc(Cc2nccc3cc(OC)c(OC)cc23)cc1OC [PAPAVERINE]
Result: 639.4

Request: Quickly give me recorded RBC for O=C(O)c1cc(/N=N/c2ccc(S(=O)(=O)Nc3ccccn3)cc2)ccc1O [SULFASALAZINE]
Result: 607.2

====

organism: Rattus norvegicus; test: Open TG-GATES - Regimen: Single; format: toxicity, organism-based, Sprague-Dawley; parameters: regimen Single, gender Male, age 6 weeks; conditions: in vivo, po, 0 mg/kg, 6 h, tissue Blood, route gavage, dose level Control
Exercise: for every item that follows, state its recorded MCH.

Request: Quickly give me recorded MCH for `COc1ccc(Cc2nccc3cc(OC)c(OC)cc23)cc1OC`
Result: 20.8 pg

Request: Quickly give me recorded MCH for `NC(=O)N/N=C/c1ccc([N+](=O)[O-])o1`
Result: 22.1 pg

Request: Quickly give me recorded MCH for `CN(C)CCC=C1c2ccccc2CCc2ccccc21`
Result: 20.6 pg

Request: Quickly give me recorded MCH for `CC(=O)Oc1ccccc1C(=O)O`
Result: 22 pg

Request: Quickly give me recorded MCH for NC(=O)N1c2ccccc2C=Cc2ccccc21 [CARBAMAZEPINE]
Result: 21.3 pg

Request: Quickly give me recorded MCH for `C[C@H](CS)C(=O)N1CCC[C@H]1C(=O)O`
Result: 21.1 pg

Request: Quickly give me recorded MCH for CCc1cc(C(N)=S)ccn1 [ETHIONAMIDE]
Result: 21.8 pg

Request: Quickly give me recorded MCH for `O=C(O)c1cn(C2CC2)c2cc(N3CCNCC3)c(F)cc2c1=O`
Result: 21.8 pg

Request: Quickly give me recorded MCH for `Clc1ccccc1CN1CCc2sccc2C1`
Result: 21.3 pg

Request: Quickly give me recorded MCH for `Cn1c(=O)c2[nH]cnc2n(C)c1=O.O`
Result: 20.8 pg

Request: Quickly give me recorded MCH for `O=C(O)c1cc(/N=N/c2ccc(S(=O)(=O)Nc3ccccn3)cc2)ccc1O`
Result: 21.8 pg

Request: Quickly give me recorded MCH for CSc1ccc2c(c1)N(CCC1CCCCN1C)c1ccccc1S2 (configuration not stated)
Result: 21.5 pg

====

species on record: Rattus norvegicus; experiment: Open TG-GATES - Regimen: Single; assay type: toxicity, organism-based, Sprague-Dawley; parameters: regimen Single, gender Male, age 6 weeks; conditions: in vivo, po, 300 mg/kg, 9 h, tissue Plasma, route gavage, dose level Middle
Exercise: for every item that follows, state its recorded GLC.
Number in mg/dL, nothing else.

Request: Quickly give me recorded GLC for `C[C@H](CS)C(=O)N1CCC[C@H]1C(=O)O`
Result: 208.6

Request: Quickly give me recorded GLC for `O=C(O)c1cn(C2CC2)c2cc(N3CCNCC3)c(F)cc2c1=O`
Result: 191.4

Request: Quickly give me recorded GLC for `Clc1ccccc1CN1CCc2sccc2C1`
Result: 197

Request: Quickly give me recorded GLC for CCc1cc(C(N)=S)ccn1 [ETHIONAMIDE]
Result: 195.2

Request: Quickly give me recorded GLC for `O=C(O)c1cc(/N=N/c2ccc(S(=O)(=O)Nc3ccccn3)cc2)ccc1O`
Result: 198.6
